Test system: K98450-129-R-PDC complex spheroid growth, percent test/control
Experiment: Anticancer human tumor K98450-129-R-PDC patient-derived colon adenocarcinoma cell line growth inhibition [RAS]
Details: second compound 0.003 µM; first compound 1 µM; hits give low values
Measured metric: viability, T/C

C=CC(=O)N1CCN(c2nc(OCC3CCCN3C)nc3c(F)c(-c4nc(N)cc(C)c4C(F)(F)F)c(Cl)cc23)C(C)C1 (configuration not stated) + CCn1c(-c2cc(N3CCN(C)CC3)cnc2C(C)OC)c2c3cc(ccc31)-c1csc(n1)CC(NC(=O)C1CC1C)C(=O)N1CCCC(N1)C(=O)OCC(C)(C)C2 | 34.8%
Cc1nc(N2CCC3(CC2)COC(C)C3N)c(CO)nc1Sc1ccnc(N)c1Cl (configuration not stated) + CCn1c(-c2cccnc2C(C)OC)c2c3cc(ccc31)N1CCOC(CC(NC(=O)C(C(C)C)N(C)C(=O)C3(F)CCN(C(=O)C#CC(C)(C)N(C)C)CC3)C(=O)N3CCCC(N3)C(=O)OCC(C)(C)C2)C1 | 10.4%
C=CC(=O)Nc1cc(Nc2nccc(-c3cn(C)c4ccccc34)n2)c(OC)cc1N(C)CCN(C)C + CCn1c(-c2cccnc2C(C)OC)c2c3cc(ccc31)N1CCOC(CC(NC(=O)C(C(C)C)N(C)C(=O)C3(F)CCN(C(=O)C#CC(C)(C)N(C)C)CC3)C(=O)N3CCCC(N3)C(=O)OCC(C)(C)C2)C1 | 10.2%
CC1(O)CCCC1n1c(=O)c(C(F)F)cc2cnc(NC3CCN(S(C)(=O)=O)CC3)nc21 (configuration not stated) + CCn1c(-c2cc(N3CCN(C)CC3)cnc2C(C)OC)c2c3cc(ccc31)-c1csc(n1)CC(NC(=O)C1CC1C)C(=O)N1CCCC(N1)C(=O)OCC(C)(C)C2 | 74.2%
CC(=O)OC12COC1CC(O)C1(C)C(=O)C(O)C3=C(C)C(OC(=O)C(O)C(NC(=O)OC(C)(C)C)c4ccccc4)CC(O)(C(OC(=O)c4ccccc4)C21)C3(C)C (configuration not stated) + CCn1c(-c2cccnc2C(C)OC)c2c3cc(ccc31)N1CCOC(CC(NC(=O)C(C(C)C)N(C)C(=O)C3(F)CCN(C(=O)C#CC(C)(C)N(C)C)CC3)C(=O)N3CCCC(N3)C(=O)OCC(C)(C)C2)C1 | 19.7%
O=C(c1ccc(F)c(F)c1Nc1ccc(I)cc1F)N1CC(O)([C@@H]2CCCCN2)C1 + CCn1c(-c2cccnc2C(C)OC)c2c3cc(ccc31)N1CCOC(CC(NC(=O)C(C(C)C)N(C)C(=O)C3(F)CCN(C(=O)C#CC(C)(C)N(C)C)CC3)C(=O)N3CCCC(N3)C(=O)OCC(C)(C)C2)C1 | 2.42%
CCC(CC)c1cc(NC2CCC(N)C2)n2nccc2n1 (configuration not stated) + CCn1c(-c2cc(N3CCN(C)CC3)cnc2C(C)OC)c2c3cc(ccc31)-c1csc(n1)CC(NC(=O)C1CC1C)C(=O)N1CCCC(N1)C(=O)OCC(C)(C)C2 | 66.3%

* * *

System: K98450-129-R-PDC complex spheroid growth, percent test/control
Assay: Anticancer human tumor K98450-129-R-PDC cell line growth inhibition [RAS]; active means viability on the fitted dose curve at most 10% of control; inactive means the rest;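 note: luminescence used as a proxy for viable cell amount; spheroids exposed to agents for seven days before the viability readout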
Conditions: second compound 0.316 µM; first compound 0.316 µM
Outcomes: yes (1) for active, no (0) for inactive

CCN1CCN(Cc2ccc(Nc3ncc(F)c(-c4cc(F)c5nc(C)n(C(C)C)c5c4)n3)nc2)CC1 + C=CC(=O)N1CCN(c2nc(OCC3CCCN3C)nc3c(F)c(-c4nc(N)cc(C)c4C(F)(F)F)c(Cl)cc23)C(C)C1 | no (0)
C[C@@H](NC(=O)c1ncnc(N)c1Cl)c1ncc(C(=O)Nc2cc(C(F)(F)F)c(Cl)cn2)s1 + C=CC(=O)N1CCN(c2nc(OCC3CCCN3C)nc3c(F)c(-c4nc(N)cc(C)c4C(F)(F)F)c(Cl)cc23)C(C)C1 | no (0)
CCC(CC)c1cc(NC2CCC(N)C2)n2nccc2n1 (stereo not given) + C=CC(=O)N1CCN(c2nc(OCC3CCCN3C)nc3c(F)c(-c4nc(N)cc(C)c4C(F)(F)F)c(Cl)cc23)C(C)C1 | no (0)
Nc1ccn(C2OC(CO)C(O)C2(F)F)c(=O)n1 (stereo not given) + C=CC(=O)N1CCN(c2nc(OCC3CCCN3C)nc3c(F)c(-c4nc(N)cc(C)c4C(F)(F)F)c(Cl)cc23)C(C)C1 | no (0)
CC(C)NCC(C(=O)N1CCN(c2ncnc3c2C(C)CC3O)CC1)c1ccc(Cl)cc1 (stereo not given) + C=CC(=O)N1CCN(c2nc(OCC3CCCN3C)nc3c(F)c(-c4nc(N)cc(C)c4C(F)(F)F)c(Cl)cc23)C(C)C1 | no (0)
NC1c2ccccc2OC12CCN(c1cnc3c(N4CCCc5ncccc54)n[nH]c3n1)CC2 (stereo not given) + C#Cc1c(F)ccc2cc(O)cc(-c3ncc4c(N5CC6CCC(C5)N6)nc(OCC56CCCN5CC(F)C6)nc4c3F)c12 | no (0)
O=C(c1ccc(F)c(F)c1Nc1ccc(I)cc1F)N1CC(O)([C@@H]2CCCCN2)C1 + C=CC(=O)N1CCN(c2nc(OCC3CCCN3C)nc3c(F)c(-c4nc(N)cc(C)c4C(F)(F)F)c(Cl)cc23)C(C)C1 | yes (1)
Cc1nc(N2CCC3(CC2)COC(C)C3N)c(CO)nc1Sc1ccnc(N)c1Cl (stereo not given) + C#Cc1c(F)ccc2cc(O)cc(-c3ncc4c(N5CC6CCC(C5)N6)nc(OCC56CCCN5CC(F)C6)nc4c3F)c12 | no (0)
CC(Nc1ccc2c(c1)OCCn1cc(N3C(=O)OCC3C(F)F)nc1-2)C(N)=O (stereo not given) + C#Cc1c(F)ccc2cc(O)cc(-c3ncc4c(N5CC6CCC(C5)N6)nc(OCC56CCCN5CC(F)C6)nc4c3F)c12 | no (0)
CCC(CC)c1cc(NC2CCC(N)C2)n2nccc2n1 (stereo not given) + C#Cc1c(F)ccc2cc(O)cc(-c3ncc4c(N5CC6CCC(C5)N6)nc(OCC56CCCN5CC(F)C6)nc4c3F)c12 | no (0)
